# tested_on: MMP-2 (Homo sapiens, UniProt P08253)
# Construct: made in house; host or cells: MMP-2-transfected p2AHT2 cells
# Sequence (P08253 110-660): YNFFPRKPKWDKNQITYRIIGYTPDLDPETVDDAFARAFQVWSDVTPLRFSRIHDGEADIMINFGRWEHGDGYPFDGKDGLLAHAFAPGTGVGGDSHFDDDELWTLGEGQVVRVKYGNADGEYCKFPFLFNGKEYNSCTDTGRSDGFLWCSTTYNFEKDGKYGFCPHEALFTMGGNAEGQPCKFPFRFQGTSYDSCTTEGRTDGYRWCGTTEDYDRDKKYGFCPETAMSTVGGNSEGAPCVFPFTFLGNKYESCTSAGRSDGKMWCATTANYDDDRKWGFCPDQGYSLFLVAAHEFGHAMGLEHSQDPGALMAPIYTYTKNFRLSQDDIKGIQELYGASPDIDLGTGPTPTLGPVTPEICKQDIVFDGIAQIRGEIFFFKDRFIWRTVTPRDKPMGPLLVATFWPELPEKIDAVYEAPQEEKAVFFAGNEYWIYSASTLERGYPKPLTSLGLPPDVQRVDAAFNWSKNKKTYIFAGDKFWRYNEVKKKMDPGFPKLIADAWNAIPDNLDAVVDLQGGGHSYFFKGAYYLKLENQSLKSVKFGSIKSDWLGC
# procedure_summary: In vitro MMP inhibition, IC50 determination (fluorogenic substrate I)
# Assay type: biochemical
# stated_conditions: value in parenthesis; read-out: MMP-2 (IC-50)
pIC50: −log10 of the molar value.
// bucketize pIC50: LOW (below 8), MEDIUM (8 to below 9), HIGH (9 or more)

Class? Entry: `CCCCCCc1ccc(N2CCN(S(=O)(=O)C3(C(=O)NO)CCN(CCOC)CC3)CC2)cc1` HIGH

Please report the category associated with `O=C(NO)C1(S(=O)(=O)N2CCN(c3ccc(Cl)nn3)CC2)CCOCC1` , nothing else. LOW

Kindly identify the class of `COCCN1CCC(C(=O)NO)(S(=O)(=O)N2CCN(c3ccc(CCCCC(C)C)cc3)CC2)CC1` . HIGH

Place this compound in its band: `COCCN1CCC(C(=O)NO)(S(=O)(=O)N2CCN(c3ccc(C#N)cc3)CC2)CC1` MEDIUM

Which bin should I file `CCCc1ccc(N2CCN(S(=O)(=O)C3(C(=O)NO)CCN(CCOC)CC3)CC2)cc1` under? HIGH

Which class is correct for the following compound? `COCCN1CCC(C(=O)NO)(S(=O)(=O)N2CCN(c3ccc(CCC4CCCC4)cc3)CC2)CC1` HIGH

Please classify: `CCCCCc1ccc(N2CCN(S(=O)(=O)C3(C(=O)NO)CCOCC3)CC2)nn1` LOW

Tag the class for `CCc1cnc(N2CCN(S(=O)(=O)C3(C(=O)NO)CCN(CCOC)CC3)CC2)nc1` LOW

Where would `O=C(NO)C1(S(=O)(=O)N2CCN(c3ccc(OC(F)(F)F)cc3)CC2)CCN(C2CC2)CC1` land among the classes by reported pIC50? HIGH

Determine which band this compound sits in: `COCCN1CCC(C(=O)NO)(S(=O)(=O)N2CCN(c3nc4ccccc4o3)CC2)CC1` LOW

For this compound, which bin applies? `COCCN1CCC(C(=O)NO)(S(=O)(=O)N2CCN(c3ccc(Br)cc3)CC2)CC1` HIGH

// return the class label for `COCCCc1ccc(N2CCN(S(=O)(=O)C3(C(=O)NO)CCN(CCOC)CC3)CC2)cc1` MEDIUM

Quick check: band for `COCCN1CCC(C(=O)NO)(S(=O)(=O)N2CCN(c3ccc(CC4CCC4)cc3)CC2)CC1` MEDIUM

Where would CCCC(C)Cc1ccc(N2CCN(S(=O)(=O)C3(C(=O)NO)CCN(CCOC)CC3)CC2)cc1 (stereo not drawn) land among the classes by reported pIC50? MEDIUM

Returns: class label. Input: `CCc1ccc(N2CCN(S(=O)(=O)C3(C(=O)NO)CCN(CCOC)CC3)CC2)cc1` HIGH
